Test: Pharmacokinetics after 21 days dosing in the efficacy study (plasma, tumor and brain concentrations; plasma AUC at steady state), Example 14
Format: in vivo, female BALB/c nude mice
Conditions: mouse, tumor, po; 5 mg/kg p.o. BID x 21 days; 4 h; mean ± SEM; read-out: Concentration in Tumor
Method: Agents were tested in the A375 human melanoma xenografts. […] Dabrafenib, Compound 26 and Compound 141 in female BALB/c nude mice plasma (K2-EDTA), tumor and brain homogenate were analyzed by LC-MS/MS (Triple Quad 6500+ Low Mass). […]
outcome-measure: concentration at 4 h (ng/g)
Quick note: give the figure in ng/g, leave out the unit.

[Q] Endpoint output: concentration at 4 h of CCN(C)S(=O)(=O)Nc1ccc(F)c(Oc2ccc3ncn(C4CC5(CCN(C6CC7(C6)CN(c6cc8c(cc6F)c(N6CCC(=O)NC6=O)nn8C)C7)CC5)C4)c(=O)c3c2)c1C#N (stereo not shown) [Compound 141] . Value?
[A] 1300

* * *

Assay: Example 9 pharmacokinetics assay for the PK and PD study Part I, II and III (plasma, tumor, liver)
Assay type: in vivo, BALB/c nude mice
Details: mouse, plasma, po; 10 mg/kg, p.o., single dose; 1 h; ± SEM; read-out: Mean Concentration in Plasma
outcome-measure: concentration at 1 h (ng/mL)
Could you give me the number in ng/mL? Just the number is fine.

[Q] Please report the recorded concentration at 1 h for CO[C@H]1CCN(S(=O)(=O)Nc2ccc(F)c(Oc3ccc4ncn([C@H]5COC6(CCN(C7CC8(C7)CN(c7cc9c(cc7F)c(N7CCC(=O)NC7=O)nn9C)C8)CC6)C5)c(=O)c4c3)c2C#N)C1 .
[A] 14700

[Q] Given CCN(C)S(=O)(=O)Nc1ccc(F)c(Oc2ccc3ncn(C4CC5(CCN(C6CC7(CCN(c8cc9c(cc8F)c(N8CCC(=O)NC8=O)nn9C)CC7)C6)CC5)C4)c(=O)c3c2)c1C#N (stereo not shown) , state its recorded concentration at 1 h.
[A] 2430

[Q] Could you share which concentration at 1 h value was measured for CO[C@@H]1CCN(S(=O)(=O)Nc2ccc(F)c(Oc3ccc4ncn([C@H]5COC6(CCN(C7CC8(C7)CN(c7cc9c(cc7F)c(N7CCC(=O)NC7=O)nn9C)C8)CC6)C5)c(=O)c4c3)c2C#N)C1 ?
[A] 11600

[Q] Which value of concentration at 1 h has been reported for CCN(C)S(=O)(=O)Nc1ccc(F)c(Oc2ccc3ncc(OC4CC5(CCN(C6CCC(c7cc8c(cc7F)c(N7CCC(=O)NC7=O)nn8C)CC6)CC5)C4)nc3c2)c1C#N (single isomer, unassigned) in the records?
[A] 6310

* * *

Test: Pharmacokinetics in female BALB/c nude mice bearing A375 xenografts, 1 day dosing (PK and PD study): plasma, tumor and brain concentrations, AUC
Assay type: in vivo
Details: mouse, plasma, po, 10 mg/kg, 10 mg/kg p.o. BID × 1 day; post 2nd dose; 10 h; read-out: Mean Concentration in Plasma ± SEM
outcome-measure: concentration at 10 h (ng/mL)
The answer is to be given in ng/mL; state only the numeric part.

[Q] Value lookup for concentration at 10 h; key = CCN(C)S(=O)(=O)Nc1ccc(F)c(Oc2ccc3ncn([C@H]4COC5(CCN(C6CC7(C6)CN(c6cc8c(cc6F)c(N6CCC(=O)NC6=O)nn8C)C7)CC5)C4)c(=O)c3c2)c1C#N
[A] 4640

* * *

Biological target: BRAF V600E (Homo sapiens, UniProt P15056+Q96SW2, V600E)
Construct: knock-in of the HiBiT tag to the endogenous BRAF V600E locus; host or cells: A375.10 (A375 clonal line, CRISPR HiBiT knock-in at the endogenous BRAF V600E locus)
Sequence (P15056 whole entry V600E): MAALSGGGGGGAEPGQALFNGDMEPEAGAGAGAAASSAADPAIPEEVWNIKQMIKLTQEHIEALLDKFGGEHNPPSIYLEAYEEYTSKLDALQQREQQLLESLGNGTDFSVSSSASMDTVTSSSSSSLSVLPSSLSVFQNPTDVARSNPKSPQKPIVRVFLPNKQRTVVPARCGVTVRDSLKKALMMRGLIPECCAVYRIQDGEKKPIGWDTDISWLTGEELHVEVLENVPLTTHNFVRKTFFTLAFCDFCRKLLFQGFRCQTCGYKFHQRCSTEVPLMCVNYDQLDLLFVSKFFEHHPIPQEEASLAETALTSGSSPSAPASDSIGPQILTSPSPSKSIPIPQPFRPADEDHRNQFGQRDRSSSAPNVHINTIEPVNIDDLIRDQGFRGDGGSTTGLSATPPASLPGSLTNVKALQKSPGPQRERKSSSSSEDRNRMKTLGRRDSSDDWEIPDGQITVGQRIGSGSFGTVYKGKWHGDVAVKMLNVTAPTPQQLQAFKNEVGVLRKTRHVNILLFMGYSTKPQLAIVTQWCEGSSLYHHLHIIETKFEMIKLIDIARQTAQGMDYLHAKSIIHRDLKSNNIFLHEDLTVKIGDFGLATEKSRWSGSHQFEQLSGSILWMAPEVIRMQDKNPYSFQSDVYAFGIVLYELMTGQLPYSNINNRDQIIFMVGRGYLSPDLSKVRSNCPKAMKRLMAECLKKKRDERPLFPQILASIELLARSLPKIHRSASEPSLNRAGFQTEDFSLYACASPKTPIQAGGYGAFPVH
Sequence (Q96SW2 whole entry): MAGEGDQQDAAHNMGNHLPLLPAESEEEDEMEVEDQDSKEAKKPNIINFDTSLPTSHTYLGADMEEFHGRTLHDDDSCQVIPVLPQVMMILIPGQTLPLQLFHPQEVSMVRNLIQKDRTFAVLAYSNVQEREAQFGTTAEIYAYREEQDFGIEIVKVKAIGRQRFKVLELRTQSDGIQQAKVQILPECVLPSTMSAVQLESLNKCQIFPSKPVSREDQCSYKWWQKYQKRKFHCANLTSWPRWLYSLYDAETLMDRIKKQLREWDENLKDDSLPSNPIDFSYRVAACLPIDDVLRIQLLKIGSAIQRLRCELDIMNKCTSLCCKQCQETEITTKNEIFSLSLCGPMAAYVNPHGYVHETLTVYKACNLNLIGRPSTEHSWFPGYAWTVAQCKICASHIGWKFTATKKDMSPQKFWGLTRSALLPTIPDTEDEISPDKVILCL
Sequence (Q16531 whole entry partner): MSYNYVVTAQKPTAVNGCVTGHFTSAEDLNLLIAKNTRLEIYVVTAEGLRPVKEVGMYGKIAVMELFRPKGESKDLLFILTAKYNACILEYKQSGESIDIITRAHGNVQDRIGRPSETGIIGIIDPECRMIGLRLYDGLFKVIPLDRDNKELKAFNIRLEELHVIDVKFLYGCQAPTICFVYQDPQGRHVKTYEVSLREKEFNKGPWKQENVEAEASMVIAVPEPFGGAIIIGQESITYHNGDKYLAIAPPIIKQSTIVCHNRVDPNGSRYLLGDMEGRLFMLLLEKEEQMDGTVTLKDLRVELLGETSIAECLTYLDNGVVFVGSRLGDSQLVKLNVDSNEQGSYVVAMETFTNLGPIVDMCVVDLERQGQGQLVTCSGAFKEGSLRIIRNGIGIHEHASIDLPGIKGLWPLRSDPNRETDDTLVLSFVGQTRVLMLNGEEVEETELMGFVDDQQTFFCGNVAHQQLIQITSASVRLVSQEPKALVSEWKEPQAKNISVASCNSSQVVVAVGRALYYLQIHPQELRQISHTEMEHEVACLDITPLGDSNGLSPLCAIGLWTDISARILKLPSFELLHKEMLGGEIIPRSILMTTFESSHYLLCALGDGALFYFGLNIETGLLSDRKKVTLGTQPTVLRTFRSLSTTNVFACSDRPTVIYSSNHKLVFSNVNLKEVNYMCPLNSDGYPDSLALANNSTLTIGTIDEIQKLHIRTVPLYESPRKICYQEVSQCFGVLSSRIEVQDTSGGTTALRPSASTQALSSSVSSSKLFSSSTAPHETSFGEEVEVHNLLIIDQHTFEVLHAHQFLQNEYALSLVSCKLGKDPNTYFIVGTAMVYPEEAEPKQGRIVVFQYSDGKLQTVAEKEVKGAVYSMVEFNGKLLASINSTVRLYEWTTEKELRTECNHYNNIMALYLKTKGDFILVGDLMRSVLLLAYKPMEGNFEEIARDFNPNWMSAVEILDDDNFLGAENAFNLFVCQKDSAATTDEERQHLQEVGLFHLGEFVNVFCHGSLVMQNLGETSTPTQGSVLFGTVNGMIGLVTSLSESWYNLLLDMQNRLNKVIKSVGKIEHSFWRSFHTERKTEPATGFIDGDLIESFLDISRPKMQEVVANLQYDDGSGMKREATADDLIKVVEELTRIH
Test: BRAF V600E HiBiT Degradation Assay
Format: cell-based
Settings: A375.10 cells, BRAF V600E, 2 hours; residual protein remaining; read-out: HiBiT-Degradation A375.10 BRAF 2 hours Emax
Description: Compounds of this invention were tested for degradation of mutant BRAF V600E using the HiBiT assay, a luminescence-based assay for quantification of cellular protein levels using the Nano-Glo® HiBiT Lytic Detection System (Catalog No. N3050, Promega, Madison, WI USA). […] Data were analyzed with a 4-parameter logistic fit to generate sigmoidal dose-response curves. […]
outcome-measure: Emax

[Q] Please provide the recorded Emax for Cn1nc(N2CCC(=O)NC2=O)c2cc(F)c(C3CCC(N4CCC5(CC4)CC(c4cnc6ccc(Oc7c(F)ccc(NS(=O)(=O)C8CCCC8)c7C#N)cc6n4)C5)CC3)cc21 (single isomer, unassigned) [Compound 270] , tested on BRAF V600E (Homo sapiens, UniProt P15056+Q96SW2, V600E).
[A] < 50%

[Q] Give the reported Emax for CCN(C)S(=O)(=O)Nc1ccc(F)c(C(=O)c2ccc3ncn(C4CC5(CCN(C6CCC(c7ccc(NC8CCC(=O)NC8=O)cc7F)CC6)CC5)C4)c(=O)c3c2)c1F (single isomer, unassigned) [Compound 199] (system: BRAF V600E (Homo sapiens, UniProt P15056+Q96SW2, V600E)).
[A] < 50%

[Q] Which measured Emax belongs to CCN(C)S(=O)(=O)Nc1ccc(F)c(Oc2ccc3ncn([C@H]4COC5(CCN(CC6CCN(c7cc8c(cc7F)c(N7CCC(=O)NC7=O)nn8C)CC6)CC5)C4)c(=O)c3c2)c1C#N [Compound 251] , tested on BRAF V600E (Homo sapiens, UniProt P15056+Q96SW2, V600E)?
[A] 50 to 90%

[Q] Any idea what Emax came out for CCN(C)S(=O)(=O)Nc1ccc(F)c(Oc2ccc3ncn(C4CCN(C5CC6(CCN(c7cc8c(cc7F)c(N7CCC(=O)NC7=O)nn8C)CC6)C5)CC4)c(=O)c3c2)c1C#N [Compound 274] on BRAF V600E (Homo sapiens, UniProt P15056+Q96SW2, V600E)?
[A] < 50%

[Q] Recorded Emax for CC(C)S(=O)(=O)Nc1ccc(F)c(Oc2ccc3ncn([C@H]4COC5(CCN(C6CCC(c7cc8c(cc7F)c(N7CCC(=O)NC7=O)nn8C)CC6)CC5)C4)c(=O)c3c2)c1C#N (single isomer, unassigned) [Compound 87] with BRAF V600E (Homo sapiens, UniProt P15056+Q96SW2, V600E), please?
[A] < 50%

[Q] Could you share what Emax was measured for CCN(C)S(=O)(=O)Nc1ccc(F)c(Oc2ccc3ncn(CCC4CCN(C5CCC(c6ccc(NC7CCC(=O)NC7=O)cc6F)CC5)CC4)c(=O)c3c2)c1C#N (single isomer, unassigned) [Compound 153] , tested on BRAF V600E (Homo sapiens, UniProt P15056+Q96SW2, V600E)?
[A] 50 to 90%

[Q] API: value(readout= Emax, system= BRAF V600E (Homo sapiens, UniProt P15056+Q96SW2, V600E), query= CCN(C)S(=O)(=O)Nc1ccc(F)c(Oc2ccc3ncn([C@H]4CO[C@@]5(CCN(C6CCC(c7cc8c(cc7F)c(N7CCC(=O)NC7=O)nn8C)CC6)C5)C4)c(=O)c3c2)c1C#N (single isomer, unassigned) [Compound 292] )
[A] < 50%

[Q] Which Emax is reported with BRAF V600E (Homo sapiens, UniProt P15056+Q96SW2, V600E) for this entry: CCN(C)S(=O)(=O)Nc1ccc(F)c(Oc2ccc3ncn([C@H]4C[C@@H]5CN(C6CCC(c7cc8c(cc7F)c(N7CCC(=O)NC7=O)nn8C)CC6)C[C@@H]5C4)c(=O)c3c2)c1C#N (single isomer, unassigned) [Compound 15] ?
[A] 50 to 90%

[Q] For BRAF V600E (Homo sapiens, UniProt P15056+Q96SW2, V600E), provide Emax of CCN(C)S(=O)(=O)Nc1ccc(F)c(Oc2ccc3ncn(CC4(F)CCN(C5CCC(c6cc7c(cc6F)c(N6CCC(=O)NC6=O)nn7C)CC5)CC4)c(=O)c3c2)c1C#N (single isomer, unassigned) [Compound 201] please.
[A] < 50%

* * *

Experiment: Example 6 pharmacokinetics assay for efficacy study (plasma, liver)
Assay type: in vivo, BALB/c nude mice
Conditions: mouse, plasma, po, 10 mg/kg, p.o., BID × 21 days, read-out: Concentration in Plasma (mean ± SEM)
outcome-measure: concentration at 6 h (ng/mL)
Lab book: enter the figure in ng/mL, no units written.

[Q] Quick check: concentration at 6 h of CCN(C)S(=O)(=O)Nc1ccc(F)c(Oc2ccc3ncc([C@@H]4COC5(CCN(C6CCC(c7cc8c(cc7F)c(N7CCC(=O)NC7=O)nn8C)CC6)CC5)C4)nc3c2)c1C#N (single isomer, unassigned) ?
[A] 3990

[Q] What value of concentration at 6 h has been recorded for this entry: Cn1nc(N2CCC(=O)NC2=O)c2cc(F)c(C3CCC(N4CCC5(CC4)CC(n4cnc6ccc(Oc7c(F)ccc(NS(=O)(=O)C8CCCC8)c7C#N)cc6c4=O)C5)CC3)cc21 (single isomer, unassigned)
[A] 1100

[Q] Query: concentration at 6 h; subject: CCN(C)S(=O)(=O)Nc1ccc(F)c(Oc2ccc3ncn(C4CC5(CCN(C6CCC(c7cc8c(cc7F)c(N7CCC(=O)NC7=O)nn8C)CC6F)CC5)C4)c(=O)c3c2)c1C#N (single isomer, unassigned)
[A] 17100
